The reported numbers originate from PubChem BioAssay AID999.

PROTOCOL TEXT: growth suppression of PTEN-null HCT116 cells, cell-based, validation, diverse DP compound set (AID 999);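 further: 100% = median luminescence of untreated cell control wells and 0% = no signal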
MEASUREMENT SETUP: CellTiter-Glo, 60 h, at 10 µM, hits give low values
Activity calls are given as the source filed them.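 How the source made its calls: active means viability at or below 21.59%, 3 SD under the median of tested compounds; inactive means the rest.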
MEASUREMENT LABEL: viability

Illustrative cases are given below, each with its answer.
{"MOLECULE": "CN1C2CCC1CC(OC(=O)C(CO)c1ccccc1)C2 (centres undefined)", "viability": "94.2% (inactive)"}
{"MOLECULE": "Cn1cnc2c(NCc3ccccc3)nc(NCCO)nc21", "viability": "90.6% (inactive)"}

Lookup: Which viability reading was recorded for the molecule `COC(=O)c1cc2c(s1)-c1ccccc1OC2` ?
Found: 97.4% (inactive)

Lookup: Which viability reading was recorded for the molecule `O=c1c2ccccc2nc2n1CCc1c-2[nH]c2ccccc12` ?
Found: 93.4% (inactive)

Lookup: Which viability reading was recorded for the molecule `CCOC(=O)C(C)(C)Oc1ccc(Cl)cc1` ?
Found: 100% (inactive)

Lookup: Which viability reading was recorded for the molecule CCC(C)CCCCC(=O)N[C@@H](CCN)C(=O)N[C@H](C(=O)N[C@@H](CCN)C(=O)N[C@H]1CCNC(=O)C([C@@H](C)O)NC(=O)[C@@H](CCN)NC(=O)[C@H](CCN)NC(=O)[C@H](CC(C)C)NC(=O)[C@@H](CC(C)C)NC(=O)[C@H](CCN)NC1=O)[C@@H](C)O (some centres undefined) ?
Found: 96% (inactive)

Lookup: Which viability reading was recorded for the molecule `C[C@H](CCC(=O)O)[C@H]1CC[C@H]2[C@@H]3CC[C@@H]4C[C@H](O)CC[C@]4(C)[C@H]3CC[C@]12C` ?
Found: 97.2% (inactive)

Lookup: Which viability reading was recorded for the molecule `O=c1[nH]cnc2ccccc12` ?
Found: 82.7% (inactive)

* * *

PROTOCOL TEXT: growth suppression of PTEN-null HCT116 cells, cell-based, validation, diverse DP compound set (AID 999);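 further: 100% = median luminescence of untreated cell control wells and 0% = no signal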
MEASUREMENT SETUP: CellTiter-Glo, 60 h, at 10 µM, hits give low values
MEASUREMENT LABEL: viability (%)
Write the answer as a number in %, unit excluded.

Lookup: Which viability reading was recorded for the molecule CC1(COc2ccc(CC3SC(=O)NC3=O)cc2)CCCCC1 (configuration not stated) ?
Found: 95.3

Lookup: Which viability reading was recorded for the molecule `NS(=O)(=O)c1cc(C(=O)O)c(NCc2ccco2)cc1Cl` ?
Found: 104

Lookup: Which viability reading was recorded for the molecule COc1ccc(CCN(C)CCCC(C#N)(c2ccc(OC)c(OC)c2)C(C)C)cc1OC (configuration not stated) ?
Found: 85.1

Lookup: Which viability reading was recorded for the molecule COc1cccc2c1C(=O)c1c(O)c3c(c(O)c1C2=O)C[C@@](O)(C(=O)CO)C[C@@H]3OC1C[C@@H](N)[C@H](O)[C@H](C)O1 (some centres not stated) ?
Found: 27.7

Lookup: Which viability reading was recorded for the molecule CC(=O)[C@H]1[C@H](C#N)CC2C3CC=C4C[C@@H](O)CCC4(C)C3CCC21C (some centres not stated) ?
Found: 94.8

Lookup: Which viability reading was recorded for the molecule `COc1ccc(-c2cc(C(=O)O)no2)cc1` ?
Found: 97.7

* * *

PROTOCOL TEXT: growth suppression of PTEN-null HCT116 cells, cell-based, validation, diverse DP compound set (AID 999);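 further: 100% = median luminescence of untreated cell control wells and 0% = no signal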
MEASUREMENT SETUP: CellTiter-Glo, 60 h, at 10 µM, hits give low values
MEASUREMENT LABEL: viability (%)
Write the answer as a number in %, unit excluded.

{"ITEM SMILES": "C/C(=C\\CNc1ncnc2c1ncn2[C@@H]1O[C@H](CO)[C@@H](O)[C@H]1O)CO", "viability / %": 91.5}
{"ITEM SMILES": "COc1ccc2c3c1O[C@H]1C[C@@H](O)C=C[C@@]31CCN(C)C2", "viability / %": 91.7}

Lookup: Which viability reading was recorded for the compound `O=C(c1ccc(F)cc1)C1CCN(CCn2c(=O)[nH]c3ccccc3c2=O)CC1` ?
Found: 94.8
